Value source: PubChem BioAssay (NCI)

- Tested on: SNB-19 CNS
- method: NCI tumour cell line growth inhibition, 48 h
property.name: TGI

O=C1C(C(c2ccc([N+](=O)[O-])cc2)N2CCOCC2)=C(O)C(c2ccccc2)N1c1ccccc1 (stereo unspecified) = > 10 µM

For every record below, what is its TGI?
1. CCOP(=O)(OCC)/C(C#N)=C\c1ccsc1
2. COCCOC(C)C(=O)C(O)S(=O)(=O)O (stereo unspecified)
3. COc1cc(N)c2[nH]c3c(C)ccc(C)c3c2c1
4. Cc1cc(Br)cc(C)c1NC(=O)C(=O)C(C(=O)c1ccncc1)C1OC(=O)c2ccccc21 (stereo unspecified)
5. C=C1C(=O)[C@]23C[C@H]1C[C@@H](O)[C@H]2[C@]1(COC3=O)[C@@H](OC(C)=O)CC[C@@](C)(COC(C)=O)[C@H]1C=O

a:
1. > 100 µM
2. > 100 µM
3. > 100 µM
4. > 100 µM
5. > 50 µM

---

- Test system: HCC-2998 colon
- method: NCI tumour cell line growth inhibition, 48 h
For each of the compounds below, state its TGI.

Solved cases (2 shown):
Cc1cc(C(=O)Nc2cc(Oc3ccc4nc(NC(=O)C5CC5)cn4n3)ccc2C)n(C)n1 = > 10 µM
Cn1cnc([N+](=O)[O-])c1Sc1nnnn1C = 51.2 µM

Kindly consider the entry below.
q: Report TGI for O=P(O)(O)OCC1OC(n2cnc3c(NCc4ccco4)ncnc32)C(O)C1O (stereo not drawn) please.
a: > 30.2 µM

---

- Test system: HCT-116 colon
- method: NCI tumour cell line growth inhibition, 48 h
property.name: TGI

// worked examples, TGI included
CC(C)=O.O=C([O-])C(F)(F)F.O=C([O-])C(F)(F)F.O=C([O-])C(F)(F)F.O=C([O-])C(F)(F)F.[Rh+2].[Rh+2] = > 100 µM
N#C/C(=C/n1c(=S)[nH]c2ccccc21)C(N)=O = > 100 µM
O=C(NNS(=O)(=O)c1ccc(Br)cc1)c1ccc(Cl)cc1NC(=O)C12CC3CC(CC(C3)C1)C2 = > 100 µM
CSc1c2c(C)n[nH]c2nn1-c1ccccc1 = > 100 µM
Oc1cc(O)c2c(c1)O[C@H](c1cc(O)c(O)c(O)c1)[C@@H](O)C2 = 33.2 µM

Provide each entry's TGI from the list below.
1. O=C1CSC(c2ccc(-c3nc4ccccc4[nH]3)cc2)=N1
2. COc1cc2c(c(O)c1C)C(=O)CC(c1ccccc1)O2 (stereo unspecified)
3. O=C1NC(=O)C(=Cc2c3ccccc3cc3ccccc23)C(=O)N1
4. CCCCCCCCCC(O)CC(=O)c1c(O)cccc1O (stereo unspecified)
5. Cc1nc(N)sc1C(=O)Nc1ncn[nH]1

a:
1: > 50 µM; 2: > 100 µM; 3: > 100 µM; 4: 56.7 µM; 5: > 100 µM

// input: 6 compounds below; output: TGI for each
1. CSC(=Nc1ccccc1Cl)NC(=O)c1ccc(Br)cc1
2. COC12C=C/C(=C(/C(=O)OCCSc3ccnn3C)C(=O)CCCCCCCCC3(OC)C=C/C(=C(/C(=O)OCCSc4ccnn4C)C(=O)CCCCCCCC1)O3)O2
3. COc1ccc(C2S/C(=C\c3cccc(OC)c3)C(=O)N2NC(=O)Cc2ccccc2)cc1 (stereo unspecified)
4. CC(C)(C)c1cc(C(=O)C2Cc3ccccc3C(=O)O2)cc(C(C)(C)C)c1O (stereo unspecified)
5. CO[C@H]1CC[C@]2(C)C3=CC[C@@]4(C)C(CC[C@@H]4C(C)CC[C@@H](C)C(C)C)C(=CCC2C1)O3 (stereo partly specified)
6. CCCCCCCCCCCC[N+](C)(C)Cc1ccccc1

a:
["> 100 µM", "1.37 µM", "> 100 µM", "21.9 µM", "> 25 µM", "2.8 µM"]
